- Tested on: HCI-015 (organoid from a triple-negative breast cancer xenograft)
- assay_summary: CTG-3D luminescence at 96 h relative to day-0 seeding control (ratio to day 0); higher = more growth / less cytotoxicity; PDxO 3D drug screen, 96 h, CTG-3D normalised to day-0 seeding control.
- test_context: 0.1 µM; days in culture: 191
property_measured: CTG-3D luminescence at 96 h
The response must contain the number and no unit.

Here are 3 molecules together with their reported answers.
[[record]]
compound_string = "O=C(/C=C/c1cccnc1)NCCCCC1CCN(C(=O)c2ccccc2)CC1"
readout_number = 0.141

[[record]]
compound_string = "O=C(O)C1(C(=O)O)CCC1.[NH2-].[NH2-].[Pt+2]"
readout_number = 1.04

[[record]]
compound_string = "COc1cccc2c1C(=O)c1c(O)c3c(c(O)c1C2=O)C[C@@](O)(C(=O)CO)C[C@@H]3O[C@H]1C[C@H](N)[C@H](O)[C@H](C)O1"
readout_number = 0.382


Now for another entry.
## Task I'd like to know its CTG-3D luminescence at 96 h. The molecule in question is CC1(C)CCC(c2ccc(Cl)cc2)=C(CN2CCN(c3ccc(C(=O)NS(=O)(=O)c4ccc(N[C@H](CCN5CCOCC5)CSc5ccccc5)c(S(=O)(=O)C(F)(F)F)c4)cc3)CC2)C1
## Result 1.59

---

# CTG-3D luminescence at 96 h annotations
- System: HCI-019 (organoid from a triple-negative breast cancer xenograft)
- assay_summary: CTG-3D luminescence at 96 h relative to day-0 seeding control (ratio to day 0); higher = more growth / less cytotoxicity; PDxO 3D drug screen, 96 h, CTG-3D normalised to day-0 seeding control.
- test_context: 0.005 µM; days in culture: 110
Write the value as a bare number.

Recorded results for 5 compounds are shown here.
[[record]]
compound_string = "NC(=O)c1cccc2cn(-c3ccc([C@@H]4CCCNC4)cc3)nc12"
readout_number = 1.18

[[record]]
compound_string = "Cc1nc(-c2cn3c(n2)-c2ccc(-c4cnn(C(C)(C)C(N)=O)c4)cc2OCC3)n(C(C)C)n1"
readout_number = 1.4

[[record]]
compound_string = "O=C(/C=C/c1cccnc1)NCCCCC1CCN(C(=O)c2ccccc2)CC1"
readout_number = 0.0804

[[record]]
compound_string = "CC[C@H](NC(=O)[C@H](C)NC)C(=O)N1C[C@@H](O)C[C@H]1Cc1c(-c2[nH]c3cc(F)ccc3c2C[C@@H]2C[C@H](O)CN2C(=O)[C@H](CC)NC(=O)[C@H](C)NC)[nH]c2cc(F)ccc12"
readout_number = 1.18

[[record]]
compound_string = "CC1(C)CCC(c2ccc(Cl)cc2)=C(CN2CCN(c3ccc(C(=O)NS(=O)(=O)c4ccc(N[C@H](CCN5CCOCC5)CSc5ccccc5)c(S(=O)(=O)C(F)(F)F)c4)cc3)CC2)C1"
readout_number = 1.56


# context switch: different compound, same CTG-3D luminescence at 96 h
## Task What does the data say about its CTG-3D luminescence at 96 h? Entry: CCc1c2c(nc3ccc(O)cc13)-c1cc3c(c(=O)n1C2)COC(=O)[C@]3(O)CC
## Result 0.471

---

- System: HCI-002 (organoid from a triple-negative breast cancer xenograft)
- assay_summary: CTG-3D luminescence at 96 h relative to day-0 seeding control (ratio to day 0); higher = more growth / less cytotoxicity; PDxO 3D drug screen, 96 h, CTG-3D normalised to day-0 seeding control.
- test_context: 625 fM; days in culture: 82
CTG-3D luminescence at 96 h reference
No unit in the answer, please; the number alone is enough.

[[record]]
compound_string = "NC(=O)Nc1cc(-c2cccc(F)c2)sc1C(=O)N[C@H]1CCCNC1"
readout_number = 2.87


## Task What does the data say about its CTG-3D luminescence at 96 h? Entry: Nc1ccn([C@@H]2O[C@H](CO)[C@@H](O)C2(F)F)c(=O)n1
## Result 3.23

## Task Thanks! And CC[C@H](NC(=O)[C@H](C)NC)C(=O)N1C[C@@H](O)C[C@H]1Cc1c(-c2[nH]c3cc(F)ccc3c2C[C@@H]2C[C@H](O)CN2C(=O)[C@H](CC)NC(=O)[C@H](C)NC)[nH]c2cc(F)ccc12 ?
## Result 3.06

## Task And CCN(c1cc(C#CCN2CCOCC2)cc(C(=O)NCc2c(C)cc(C)[nH]c2=O)c1C)[C@H]1CC[C@H](N(C)CCOC)CC1 ?
## Result 3.6

## Task And the next one, CC(C)n1nc(-c2ccc3oc(N)nc3c2)c2c(N)ncnc21 ?
## Result 2.93
